Measured screen value by item
B1: PIP5K1C peptide 640-655 (Phosphatidylinositol 4-phosphate 5-kinase type-1 gamma), 16-mer library wild type / TLN1 PTB (TLN1 Phosphotyrosine-binding (PTB) domain, residues 309-401) (parent)
chain 1: FPTDERSWVYSPLHYS
chain 2: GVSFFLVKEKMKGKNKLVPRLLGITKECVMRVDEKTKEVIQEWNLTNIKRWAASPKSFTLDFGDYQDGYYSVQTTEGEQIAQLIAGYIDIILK

Variants of: B1
Assay summary: proteomic peptide phage display deep mutational scan (ProP-PD DMS): M13 P8 16-mer library selected against immobilised GST-tagged bait for four days (rounds), NGS of the eluted pools per day and pseudo-replica
Experimental context: with TLN1 PTB (TLN1 Phosphotyrosine-binding (PTB) domain, residues 309-401); bait immobilised on MaxiSorp plates (10 µg), library pre-cleared on GST, 2 h binding at 4 °C, five washes; one round per day, days 1-4; value from days 2 and 3; keep out of graded; scale: average fractional NGS count over selection days 2 and 3
API doc: respond with a numeric literal and nothing else, no unit.

A selection of reference data follows.
Ask: Please report the recorded screen value for chain 1 Y10A .
Reply: 0.000303

Ask: Param item: chain 1 V9I
Reply: 5.76e-05

Ask: Param item: chain 1 T3R
Reply: 0.000107

Ask: Param item: chain 1 T3Q
Reply: 0.000354

Ask: Param item: chain 1 E5V
Reply: 0.00021

Turning to the following variant.
Ask: Please report the recorded screen value for chain 1 R6H .
Reply: 3.76e-05
